These measurements were taken from PubChem BioAssay AID248.

system: L1210 leukemia ip in BDF1 mice, survival T/C; experiment: NCI In Vivo Anticancer Drug Screen. Data for tumor model L1210 Leukemia (intraperitoneal) in B6D2F1 (BDF1) mice; conditions: endpoint: mean survival time; dose: 100.0 mg/kg/injection; schedule: Q01DX009 (ip); vehicle: saline with Tween-80; higher = longer survival
Inconclusive results and toxic doses are left out.
For each record, write down the corresponding T/C.

Record excerpt, results attached:
CS(=O)(=O)c1ccc(Br)cc1 :: 103 % of control
O=C1OC(=O)c2ccc([N+](=O)[O-])c3c([N+](=O)[O-])ccc1c23 :: 88 % of control

// for each compound below, give its T/C
1. CCCCCCCCCCCCc1c(C(OC)OC)[nH]c(=S)[nH]c1=O
2. CC(=O)Nc1ccc(-c2ccccc2)cc1

Reply |
["94 % of control", "110 % of control"]
